System: spring barley (HORVS)
Protocol description: Postemergence greenhouse trial, % visual injury on spring barley
Format: in vivo, Hordeum vulgare
Condition info: HORVS; 35 g/ha, applied alone
Measure: % visual injury, Ob (%)
Field format: number, assumed %, no unit text.

Study these solved cases before continuing.
CCCCCC(C)OC(=O)COc1ccc(Cl)c2cccnc12 (centres unmarked) [CQC-m, cloquintocet-mexyl, reference compound] | 0
Nc1c(F)c(-c2ccc3ccoc3c2)nc(C(=O)O)c1Cl | 30
Nc1c(F)c(-c2ccc3scnc3c2)nc(C(=O)O)c1Cl | 40
COC(=O)c1nc(-c2ccc3sccc3c2)c(F)c(N)c1Cl | 50

Which % visual injury, Ob value is on record for COc1c(N)nc(-c2ccc3sccc3c2)nc1C(=O)O ? 15

The values you see were collected from patent US9763445B2.
